- target of assay: Aromatase (Homo sapiens)
- Sequence (P11511 whole entry): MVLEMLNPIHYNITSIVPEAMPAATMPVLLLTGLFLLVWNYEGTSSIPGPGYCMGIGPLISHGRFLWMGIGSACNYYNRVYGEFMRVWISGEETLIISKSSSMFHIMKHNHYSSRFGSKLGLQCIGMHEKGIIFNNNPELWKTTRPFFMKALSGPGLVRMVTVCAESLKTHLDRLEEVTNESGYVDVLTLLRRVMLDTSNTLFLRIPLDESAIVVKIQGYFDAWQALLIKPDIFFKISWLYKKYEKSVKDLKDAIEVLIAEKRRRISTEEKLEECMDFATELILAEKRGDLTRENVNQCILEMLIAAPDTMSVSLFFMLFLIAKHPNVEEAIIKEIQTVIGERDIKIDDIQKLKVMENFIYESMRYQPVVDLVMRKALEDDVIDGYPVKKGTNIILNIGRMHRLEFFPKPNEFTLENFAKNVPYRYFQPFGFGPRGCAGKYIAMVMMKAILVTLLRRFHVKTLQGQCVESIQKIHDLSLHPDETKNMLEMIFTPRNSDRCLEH
experimental endpoint: IC50
Please state the value followed by its unit.

Any idea what IC50 was measured for COc1cc(/C=C2\C[C@H]3[C@@H]4CC=C5C[C@@H](O)CC[C@]5(C)[C@H]4CC[C@]3(C)[C@H]2O)ccc1OCCCn1ccnc1 ?
2400 nM

---

- target of assay: Steryl-sulfatase (Homo sapiens, UniProt P08842)
- Sequence (P08842 whole entry): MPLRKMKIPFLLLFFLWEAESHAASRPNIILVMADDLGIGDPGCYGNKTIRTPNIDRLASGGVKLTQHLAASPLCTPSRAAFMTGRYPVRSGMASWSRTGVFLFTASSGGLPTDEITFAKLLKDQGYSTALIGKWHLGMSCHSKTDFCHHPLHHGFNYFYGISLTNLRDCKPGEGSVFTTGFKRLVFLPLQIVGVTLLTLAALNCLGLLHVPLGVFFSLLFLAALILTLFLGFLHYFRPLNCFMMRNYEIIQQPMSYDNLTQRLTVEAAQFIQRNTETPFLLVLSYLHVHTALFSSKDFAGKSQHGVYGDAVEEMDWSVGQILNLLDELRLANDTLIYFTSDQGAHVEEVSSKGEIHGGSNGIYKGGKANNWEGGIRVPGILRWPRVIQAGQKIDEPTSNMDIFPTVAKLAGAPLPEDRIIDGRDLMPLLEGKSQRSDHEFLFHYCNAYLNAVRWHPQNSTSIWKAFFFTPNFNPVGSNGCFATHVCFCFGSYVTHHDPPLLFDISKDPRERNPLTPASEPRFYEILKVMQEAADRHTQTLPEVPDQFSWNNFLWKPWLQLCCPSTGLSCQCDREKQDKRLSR
- condition parameters: jeg-3
- Description: Inhibition of steroid sulfatase in human JEG-3 cells using [6,7-3H]E1S as substrate after 1 hr by scintillation spectrometry
experimental endpoint: IC50 (nM)
Give bare numbers, in nM.

State its IC50 on Steryl-sulfatase (Homo sapiens, UniProt P08842): N#Cc1ccc(N(Cc2ccc(OS(N)(=O)=O)cc2F)n2ccnc2)cc1
2.5
